Attribution: ChEMBL document CHEMBL6071142

target: Signal transducer and activator of transcription 3 (Homo sapiens); test: Binding affinity to STAT3 (unknown origin) assessed as dissociation constant by SPR assay
Sequence (P40763 whole entry): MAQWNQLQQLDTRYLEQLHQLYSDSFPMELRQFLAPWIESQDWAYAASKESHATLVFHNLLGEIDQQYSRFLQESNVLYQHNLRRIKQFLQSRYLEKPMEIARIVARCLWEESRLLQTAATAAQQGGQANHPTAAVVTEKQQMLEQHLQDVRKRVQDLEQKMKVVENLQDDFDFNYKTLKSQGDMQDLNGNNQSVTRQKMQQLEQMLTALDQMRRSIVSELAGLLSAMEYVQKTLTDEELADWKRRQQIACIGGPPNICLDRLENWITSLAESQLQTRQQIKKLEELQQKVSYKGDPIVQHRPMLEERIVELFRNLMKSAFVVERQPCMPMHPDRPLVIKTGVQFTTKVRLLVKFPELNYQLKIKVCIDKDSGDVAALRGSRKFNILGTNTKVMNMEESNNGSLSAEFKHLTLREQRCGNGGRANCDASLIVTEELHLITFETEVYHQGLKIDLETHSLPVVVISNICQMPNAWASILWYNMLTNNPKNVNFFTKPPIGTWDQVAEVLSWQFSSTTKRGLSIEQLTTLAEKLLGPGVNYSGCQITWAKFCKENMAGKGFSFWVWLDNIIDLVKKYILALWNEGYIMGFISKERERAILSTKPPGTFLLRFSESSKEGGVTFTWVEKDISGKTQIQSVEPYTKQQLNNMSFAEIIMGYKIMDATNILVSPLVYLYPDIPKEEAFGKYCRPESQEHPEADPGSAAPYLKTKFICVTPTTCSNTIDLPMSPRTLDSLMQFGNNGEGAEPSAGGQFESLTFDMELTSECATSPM
Field: pKd. Provide a value for each of the compounds that follow.
Give bare numbers, as −log10 of the molar value.

Please state, for each entry, its recorded pKd.
1. C=C1C(=O)O[C@@H]2C[C@@]3(C)CC[C@@H](OC(=O)[C@@H](C)NC(=O)c4ccc(C(=O)Nc5ccccc5N)cc4)C(=C)[C@@H]3C[C@H]12
2. C=C1C(=O)O[C@@H]2C[C@@]3(C)CC[C@@H](OC(=O)[C@@H](C)NC(=O)c4ccc(/C=C/C(=O)NO)cc4)C(=C)[C@@H]3C[C@H]12
3. C=C1C(=O)O[C@@H]2C[C@@]3(C)CC[C@@H](OC(=O)CNC(=O)c4ccc(C(=O)Nc5ccccc5N)cc4)C(=C)[C@@H]3C[C@H]12
4. C=C1C(=O)O[C@@H]2C[C@@]3(C)CC[C@@H](OC(=O)[C@@H](C)NC(=O)c4cccc(/C=C/C(=O)NO)c4)C(=C)[C@@H]3C[C@H]12

[5.30, 5.41, 4.41, 4.87]

---

Please provide measured pIC50 for the entries that follow.
Biological target: Protein deacetylase HDAC6 (Homo sapiens)
Sequence (Q9UBN7 whole entry): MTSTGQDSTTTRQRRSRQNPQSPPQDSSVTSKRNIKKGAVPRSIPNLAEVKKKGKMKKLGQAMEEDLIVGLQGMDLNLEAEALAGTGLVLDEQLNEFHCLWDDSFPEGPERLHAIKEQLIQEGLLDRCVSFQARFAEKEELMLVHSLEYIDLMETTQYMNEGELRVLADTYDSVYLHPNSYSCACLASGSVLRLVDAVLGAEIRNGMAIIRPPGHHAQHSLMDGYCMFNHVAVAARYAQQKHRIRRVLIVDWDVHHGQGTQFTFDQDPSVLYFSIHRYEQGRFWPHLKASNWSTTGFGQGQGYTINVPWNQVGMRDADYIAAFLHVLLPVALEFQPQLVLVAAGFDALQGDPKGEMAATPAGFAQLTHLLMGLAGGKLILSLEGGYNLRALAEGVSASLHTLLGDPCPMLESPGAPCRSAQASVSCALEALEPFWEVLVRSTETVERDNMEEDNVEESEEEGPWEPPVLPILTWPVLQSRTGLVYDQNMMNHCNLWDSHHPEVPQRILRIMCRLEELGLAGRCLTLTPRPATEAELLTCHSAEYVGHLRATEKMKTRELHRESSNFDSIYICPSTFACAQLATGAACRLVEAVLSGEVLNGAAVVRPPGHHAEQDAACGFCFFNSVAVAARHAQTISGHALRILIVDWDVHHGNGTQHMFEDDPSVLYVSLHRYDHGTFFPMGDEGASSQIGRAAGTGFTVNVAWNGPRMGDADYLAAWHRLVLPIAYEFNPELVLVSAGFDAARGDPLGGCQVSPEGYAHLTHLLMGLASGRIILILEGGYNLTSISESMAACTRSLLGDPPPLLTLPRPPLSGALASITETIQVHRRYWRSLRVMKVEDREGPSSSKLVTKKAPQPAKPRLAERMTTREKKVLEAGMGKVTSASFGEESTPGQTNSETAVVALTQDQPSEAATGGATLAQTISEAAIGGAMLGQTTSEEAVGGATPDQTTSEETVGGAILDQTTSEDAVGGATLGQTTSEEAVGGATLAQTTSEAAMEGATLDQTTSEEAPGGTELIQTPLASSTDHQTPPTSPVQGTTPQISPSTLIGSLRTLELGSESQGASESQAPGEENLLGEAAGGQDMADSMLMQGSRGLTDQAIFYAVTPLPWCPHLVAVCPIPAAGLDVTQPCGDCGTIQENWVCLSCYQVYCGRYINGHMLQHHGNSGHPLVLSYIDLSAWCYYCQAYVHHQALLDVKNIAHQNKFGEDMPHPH
Test: Inhibition of recombinant human HDAC6 using Boc-Lys (acetyl)-AMC as substrate preincubated with compound for 1 hr followed by substrate addition and measured after 30 mins by microplate reader assay
Give bare numbers, as −log10 of the molar value.

Worked cases, answers included:
1) C=C1C(=O)O[C@@H]2C[C@@]3(C)CC[C@@H](OC(=O)[C@@H](C)NC(=O)c4ccc(C(=O)NO)cc4)C(=C)[C@@H]3C[C@H]12 6.79
2) C=C1C(=O)O[C@@H]2C[C@@]3(C)CC[C@@H](OC(=O)[C@@H](C)NC(=O)c4ccc(/C=C/C(=O)NO)cc4)C(=C)[C@@H]3C[C@H]12 7.19

Now for a further compound.
What does the data say about its pIC50? Entry: C=C1C(=O)O[C@@H]2C[C@@]3(C)CC[C@@H](OC(=O)[C@@H](C)NC(=O)c4cccc(/C=C/C(=O)NO)c4)C(=C)[C@@H]3C[C@H]12
7.06

---

system: HepG2; experiment: Anticancer activity against human HepG2 cells assessed as cell viability incubated for 72 hrs using self assembled nanoparticle as source of compound by CCK-8 assay; type: functional, cell-based; settings: HepG2, 72 h
ENDPOINT: IC50 (nM)
One number for each entry, in nM.

// IC50 lookup, key: C=C1C(=O)O[C@@H]2C[C@@]3(C)CC[C@@H](OC(=O)[C@H](C)NC(=O)c4ccc(/C=C/C(=O)NO)cc4)C(=C)[C@@H]3C[C@H]12
170

---

Provide the recorded IC50 for the entries that follow.
target: Histone deacetylase 2 (Homo sapiens); assay: Inhibition of recombinant human HDAC2 using Boc-Lys (acetyl)-AMC as substrate preincubated with compound for 1 hr followed by substrate addition and measured after 30 mins by microplate reader assay
Sequence (Q92769 whole entry): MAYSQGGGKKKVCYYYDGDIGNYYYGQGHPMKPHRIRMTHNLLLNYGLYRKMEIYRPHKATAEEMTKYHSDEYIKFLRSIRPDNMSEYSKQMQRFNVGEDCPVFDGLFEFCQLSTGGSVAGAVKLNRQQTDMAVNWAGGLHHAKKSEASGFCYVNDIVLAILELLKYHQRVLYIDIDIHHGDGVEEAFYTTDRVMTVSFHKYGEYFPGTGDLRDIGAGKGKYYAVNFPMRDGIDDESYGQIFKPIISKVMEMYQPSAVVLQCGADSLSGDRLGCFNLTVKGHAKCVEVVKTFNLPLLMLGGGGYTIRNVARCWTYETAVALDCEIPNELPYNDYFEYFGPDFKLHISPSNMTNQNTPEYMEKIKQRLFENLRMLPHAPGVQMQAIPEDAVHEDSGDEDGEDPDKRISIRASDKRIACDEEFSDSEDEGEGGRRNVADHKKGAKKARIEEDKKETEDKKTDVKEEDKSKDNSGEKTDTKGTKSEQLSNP

1) C=C1C(=O)O[C@@H]2C[C@@]3(C)CC[C@@H](OC(=O)[C@H](C)NC(=O)c4ccc(/C=C/C(=O)NO)cc4)C(=C)[C@@H]3C[C@H]12 52.6 nM
2) C=C1C(=O)O[C@@H]2C[C@@]3(C)CCCC(=C)[C@@H]3C[C@H]12 > 1000 nM
3) C=C1C(=O)O[C@@H]2C[C@@]3(C)CC[C@@H](OC(=O)CNC(=O)c4ccc(C(=O)NO)cc4)C(=C)[C@@H]3C[C@H]12 189 nM
4) C=C1C(=O)O[C@@H]2C[C@@]3(C)CC[C@@H](OC(=O)CNC(=O)c4ccc(C(=O)Nc5ccccc5N)cc4)C(=C)[C@@H]3C[C@H]12 > 1000 nM
5) C=C1C(=O)O[C@@H]2C[C@@]3(C)CC[C@@H](OC(=O)[C@H](C)NC(=O)c4ccc(C(=O)Nc5ccccc5N)cc4)C(=C)[C@@H]3C[C@H]12 > 1000 nM
6) C=C1C(=O)O[C@@H]2C[C@@]3(C)CC[C@@H](OC(=O)[C@H](CC)NC(=O)c4ccc(C(=O)Nc5ccccc5N)cc4)C(=C)[C@@H]3C[C@H]12 > 1000 nM

Could I get IC50 for every one of these entries?
1. C=C1C(=O)O[C@@H]2C[C@@]3(C)CC[C@@H](OC(=O)[C@@H](CC(C)C)NC(=O)c4ccc(C(=O)Nc5ccccc5N)cc4)C(=C)[C@@H]3C[C@H]12
2. C=C1C(=O)O[C@@H]2C[C@@]3(C)CC[C@@H](OC(=O)[C@@H](CC)NC(=O)c4ccc(C(=O)Nc5ccccc5N)cc4)C(=C)[C@@H]3C[C@H]12
3. C=C1C(=O)O[C@@H]2C[C@@]3(C)CC[C@@H](OC(=O)[C@H](CC(C)C)NC(=O)c4ccc(C(=O)Nc5ccccc5N)cc4)C(=C)[C@@H]3C[C@H]12

> 1000 nM
> 1000 nM
> 1000 nM

---

biological target: Histone deacetylase 11 (Homo sapiens, UniProt Q96DB2); assay: Inhibition of recombinant human HDAC11 using Boc-Lys (trifluroacetyl)-AMC as substrate preincubated with compound for 1 hr followed by substrate addition and measured after 30 mins by microplate reader assay
Sequence (Q96DB2 whole entry): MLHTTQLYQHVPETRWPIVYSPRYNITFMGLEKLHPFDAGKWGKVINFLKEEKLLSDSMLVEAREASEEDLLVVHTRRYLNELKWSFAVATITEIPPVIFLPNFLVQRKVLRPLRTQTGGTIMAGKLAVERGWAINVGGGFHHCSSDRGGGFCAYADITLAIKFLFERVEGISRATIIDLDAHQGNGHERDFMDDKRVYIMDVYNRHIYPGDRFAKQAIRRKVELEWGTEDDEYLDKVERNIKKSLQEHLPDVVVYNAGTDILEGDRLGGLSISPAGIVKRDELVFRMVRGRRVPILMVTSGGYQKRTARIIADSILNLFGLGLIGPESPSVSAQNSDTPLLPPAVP
ENDPOINT: pIC50
Numbers only, as −log10 of the molar value.

Request - read-out pIC50 | tested on Histone deacetylase 11 (Homo sapiens, UniProt Q96DB2) | compound C=C1C(=O)O[C@@H]2C[C@@]3(C)CC[C@@H](OC(=O)[C@H](C)NC(=O)c4ccc(/C=C/C(=O)NO)cc4)C(=C)[C@@H]3C[C@H]12
6.58

---

target: Histone deacetylase 9 (Homo sapiens); assay: Inhibition of recombinant human HDAC9 using Boc-Lys (trifluroacetyl)-AMC as substrate preincubated with compound for 1 hr followed by substrate addition and measured after 30 mins by microplate reader assay
Sequence (Q9UKV0 whole entry): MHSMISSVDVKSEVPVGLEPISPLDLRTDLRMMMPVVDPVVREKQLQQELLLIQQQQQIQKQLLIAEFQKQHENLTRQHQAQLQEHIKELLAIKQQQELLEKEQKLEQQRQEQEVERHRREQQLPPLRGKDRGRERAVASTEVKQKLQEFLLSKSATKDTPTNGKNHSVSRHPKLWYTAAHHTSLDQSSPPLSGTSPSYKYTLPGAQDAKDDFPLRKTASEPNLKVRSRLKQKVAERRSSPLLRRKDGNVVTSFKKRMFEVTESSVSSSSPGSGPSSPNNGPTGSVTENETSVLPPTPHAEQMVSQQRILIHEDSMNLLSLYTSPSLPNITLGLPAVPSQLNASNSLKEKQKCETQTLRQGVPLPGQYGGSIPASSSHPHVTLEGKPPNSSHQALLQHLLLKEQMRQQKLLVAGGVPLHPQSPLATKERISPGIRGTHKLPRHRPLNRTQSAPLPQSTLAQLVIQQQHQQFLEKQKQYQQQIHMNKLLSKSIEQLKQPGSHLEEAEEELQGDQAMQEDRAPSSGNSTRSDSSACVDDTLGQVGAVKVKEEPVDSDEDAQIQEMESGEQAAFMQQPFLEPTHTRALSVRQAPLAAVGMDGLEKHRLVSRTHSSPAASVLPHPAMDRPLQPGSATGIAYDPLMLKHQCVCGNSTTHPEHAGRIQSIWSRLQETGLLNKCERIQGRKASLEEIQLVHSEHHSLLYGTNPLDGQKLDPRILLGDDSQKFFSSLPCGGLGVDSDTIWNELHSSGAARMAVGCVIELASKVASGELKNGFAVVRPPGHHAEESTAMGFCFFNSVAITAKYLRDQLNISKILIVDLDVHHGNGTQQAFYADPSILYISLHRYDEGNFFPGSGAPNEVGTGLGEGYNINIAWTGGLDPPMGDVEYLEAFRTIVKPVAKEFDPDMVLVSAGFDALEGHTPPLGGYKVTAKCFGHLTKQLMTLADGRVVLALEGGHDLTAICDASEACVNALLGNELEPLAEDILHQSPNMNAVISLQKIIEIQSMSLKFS
ENDPOINT: IC50

Give its IC50 value. Item: C=C1C(=O)O[C@@H]2C[C@@]3(C)CC[C@@H](OC(=O)[C@H](C)NC(=O)c4ccc(/C=C/C(=O)NO)cc4)C(=C)[C@@H]3C[C@H]12
> 10 µM

---

biological target: Histone deacetylase 2 (Homo sapiens); assay: Inhibition of recombinant human HDAC2 using Boc-Lys (acetyl)-AMC as substrate preincubated with compound for 1 hr followed by substrate addition and measured after 30 mins by microplate reader assay
ENDPOINT: IC50 (nM)
Answers are plain numbers, in nM.

Worked set:
1. C=C1C(=O)O[C@@H]2C[C@@]3(C)CC[C@@H](OC(=O)[C@H](C)NC(=O)c4ccc(C(=O)NO)cc4)C(=C)[C@@H]3C[C@H]12 844
2. Nc1ccc(F)cc1NC(=O)c1ccc(CNC(=O)/C=C/c2cccnc2)cc1 212
3. C=C1C(=O)O[C@@H]2C[C@@]3(C)CC[C@@H](OC(=O)[C@@H](C)NC(=O)c4ccc(/C=C/C(=O)NO)cc4)C(=C)[C@@H]3C[C@H]12 342
4. C=C1C(=O)O[C@@H]2C[C@@]3(C)CC[C@@H](OC(=O)CNC(=O)c4cccc(/C=C/C(=O)NO)c4)C(=C)[C@@H]3C[C@H]12 92.7
5. C=C1C(=O)O[C@@H]2C[C@@]3(C)CC[C@@H](OC(=O)[C@H](C)NC(=O)c4cccc(/C=C/C(=O)NO)c4)C(=C)[C@@H]3C[C@H]12 404

Batch request: IC50 for each of the following molecules.
1. C=C1C(=O)O[C@@H]2C[C@@]3(C)CC[C@@H](OC(=O)[C@@H](C)NC(=O)c4ccc(C(=O)Nc5ccccc5N)cc4)C(=C)[C@@H]3C[C@H]12
2. C=C1C(=O)O[C@@H]2C[C@@]3(C)CC[C@@H](OC(=O)[C@@H](C)NC(=O)c4cccc(/C=C/C(=O)NO)c4)C(=C)[C@@H]3C[C@H]12

[507, 313]
